Hello, the source for this data is patent US20260176276A1, in case you need it.

Measurement Target: 15-PGDH (Homo sapiens, UniProt P15428)
Sequence (P15428 whole entry): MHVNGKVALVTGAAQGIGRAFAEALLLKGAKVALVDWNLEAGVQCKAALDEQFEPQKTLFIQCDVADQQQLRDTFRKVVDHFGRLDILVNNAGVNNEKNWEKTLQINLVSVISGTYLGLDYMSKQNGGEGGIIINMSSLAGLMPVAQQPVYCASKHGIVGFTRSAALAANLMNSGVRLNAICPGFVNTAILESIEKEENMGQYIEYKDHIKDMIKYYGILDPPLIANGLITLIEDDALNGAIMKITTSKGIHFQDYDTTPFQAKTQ
Measurement Protocol: Detection of activity of 15-PGDH kinase (enzyme inhibition, fluorescence slope)
Particulars: inhibitory activity against 15-PGDH enzyme; substrates PGF2α and β-NAD; fluorescence Ex/Em=340/450
Experimental: [table] • a. A solution of pH 7.5 containing 50 mM Tris-HCl, 0.01% Tween 20 was prepared with ultrapure water as a reaction buffer; • b. […]
pIC50: −log10 of the molar value.
In this section, each of the compounds is paired with its reported pIC50.

Worked examples, 8 compounds total:
Q. Given Nc1c([S+]([O-])Cc2ccccc2)sc2nc(-c3ccccc3)n3ccnc3c12 (stereo not drawn) , state its recorded pIC50.
A. 7.82 to 8.00

Q. Given CCCC[S+]([O-])c1sc2nc(-c3ccsc3)n3ccnc3c2c1N (stereo not drawn) , state its recorded pIC50.
A. 8.40 to 8.82

Q. Given CCCC[S+]([O-])c1sc2nc(-c3ccccc3)n3ccnc3c2c1N (stereo not drawn) , state its recorded pIC50.
A. 8.00 to 8.40

Q. Given Nc1c([S+]([O-])C2CCCCC2)sc2nc(-c3ccccc3)n3ccnc3c12 (stereo not drawn) , state its recorded pIC50.
A. 8.00 to 8.40

Q. Given CCCC[S+]([O-])c1sc2nc(-c3cccnc3)n3ccnc3c2c1N (stereo not drawn) , state its recorded pIC50.
A. > 8.82

Q. Given CCCC[S+]([O-])c1sc2nc(-c3ccc4c(c3)CN(C)C4=O)n3ccnc3c2c1N (stereo not drawn) , state its recorded pIC50.
A. 8.40 to 8.82

Q. Given CCCC[S+]([O-])c1sc2nc(-c3ccc(N4CCOCC4)nc3)n3ccnc3c2c1N (stereo not drawn) , state its recorded pIC50.
A. 8.00 to 8.40

Q. Given CCCC[S+]([O-])c1sc2nc(-c3ccncc3)n3ccnc3c2c1N (stereo not drawn) , state its recorded pIC50.
A. 8.40 to 8.82

Further cases:
Q. Given CCCC[S+]([O-])c1sc2nc(-c3cnccn3)n3ccnc3c2c1N (stereo not drawn) , state its recorded pIC50.
A. 8.00 to 8.40
